Ref: patent US5696277A

- System: human cytomegalovirus
- assayMethodText: CMV antiviral susceptibility assay: HCMV DNA by nucleic acid hybridization in infected MRC-5 cells (Tables I and II)
- Assay type: cell-based
- conditionInfo: HCMV; phosphonoformate series, versus PFA
// reported fold increase in activity per item

// solved cases for fold increase in activity follow
smi	systemName	fold increase in activity
CCCCCCCCCCCCCCCCCCOC[C@H](COP(=O)(O)C(=O)O)OCc1ccccc1	human cytomegalovirus	72 fold
CCCCCCCCCCCCCC(=O)OC[C@H](COP(=O)(O)C(=O)O)OC(=O)CCCCCCCCCCCCC	human cytomegalovirus	0.33 fold
CCCCCCCCCCCCCC(=O)OC[C@H](COP(=O)(O)C(=O)OCC)OC(=O)CCCCCCCCCCCCC	human cytomegalovirus	1.53 fold

Turning now to a further record.
Recorded fold increase in activity of CCCCCCCCCCCCCCCCCCOC[C@@H](O)COP(=O)(O)C(=O)OCC , please.
38 fold
